experiment: Cell Titer-Glo Cell Viability Assay, genotype 1a cells
Type: cell-based
assay-conditions: human, En5-3/Htat2ANeo (HCV genotype 1a replicon) cells, HCV-1a assays, read-out: Cytotoxicity* (CC50)
Below, each entry is listed with its recorded CC50 at 72 h.

The examples below pair each entry with its known result.
>  <smiles-input>
CN(C)CCn1cc(C#Cc2ccc(NC(=O)[C@@H]3COCCN3C(=O)[C@H](NC(=O)NOC(C)(C)C)c3ccccc3)cc2)c(-c2cc(Cl)ccc2O)n1

>  <result>
1 to 10 µM

$$$$
>  <smiles-input>
N#CCCn1cc(C#Cc2ccc(NC(=O)[C@@H]3COCCN3C(=O)[C@H](NC(=O)c3ccccc3)c3ccccc3)cc2)c(-c2cc(Cl)ccc2O)n1

>  <result>
> 33.3 µM

$$$$
>  <smiles-input>
Cn1cc(C#Cc2ccc(NC(=O)[C@@H]3COCCN3C(=O)[C@H](NC(=O)N3CCOCC3)c3ccccc3)cc2)c(-c2cc(Cl)ccc2O)n1

>  <result>
> 33.3 µM

$$$$
>  <smiles-input>
N#CCCn1cc(C#Cc2ccc(NC(=O)[C@@H]3COCCN3C(=O)[C@H](NC(=O)NC3CC3)c3ccccc3)cc2)c(-c2cc(Cl)ccc2O)n1

>  <result>
> 33.3 µM

$$$$
>  <smiles-input>
CN1CCN(C(=O)N[C@@H](C(=O)N2CCOC[C@H]2C(=O)Nc2ccc(C#Cc3cn(CCC#N)nc3-c3cc(Cl)ccc3O)cc2)c2ccccc2)CC1

>  <result>
1 to 10 µM

$$$$
>  <smiles-input>
N#CCCn1cc(C#Cc2ccc(NC(=O)[C@@H]3COCCN3C(=O)[C@H](NC(=O)N3CCC(=O)CC3)c3ccccc3)cc2)c(-c2cc(Cl)ccc2O)n1

>  <result>
> 33.3 µM

$$$$
>  <smiles-input>
Cn1cc(C#Cc2ccc(NC(=O)[C@@H]3COCCN3C(=O)[C@H](NC(=O)c3cccs3)c3ccccc3)cc2)c(-c2cc(Cl)ccc2O)n1

>  <result>
> 33.3 µM

$$$$

Please find the next compound below.
Q: Can you share its CC50 at 72 h? I mean this compound: N#CCCn1cc(C#Cc2ccc(NC(=O)[C@@H]3COCCN3C(=O)[C@H](NC(=O)N3CCOCC3)c3ccccc3)cc2)c(-c2cc(Cl)ccc2O)n1
A: > 33.3 µM
